Assay: Total plasma concentration in mdr1a-deficient mouse treated with venlafaxine at 12 mg/kg/day administered through continuous minipump treatment for 3 days by UPLC-MS analysis
Assay type: ADME, organism-based
Conditions: other: continuous minipump
valueType: concentration at 72 h (ng/mL)
Expressed in ng/mL, but write only the number.

CN(C)CC(c1ccc(O)cc1)C1(O)CCCCC1 (configuration not stated) [DESVENLAFAXINE]    7.5

Query compound follows.
Prompt line: What concentration at 72 h value was documented for this compound, CNCC(c1ccc(OC)cc1)C1(O)CCCCC1 (configuration not stated) [N-DESMETHYLVENLAFAXINE] ?
Response line: 11

---

Experiment: Total plasma concentration in mdr1a-deficient rat treated with venlafaxine at 9 mg/kg/day administered through continuous minipump treatment for 3 days by UPLC-MS analysis
Type: ADME, organism-based
Conditions: other: continuous minipump
valueType: concentration at 72 h (ng/mL)
Expressed in ng/mL, but write only the number.

CNCC(c1ccc(OC)cc1)C1(O)CCCCC1 (configuration not stated)    10

Prompt line: What concentration at 72 h value was documented for this compound, CN(C)CC(c1ccc(O)cc1)C1(O)CCCCC1 (configuration not stated) ?
Response line: 11
